Test system: human spermatozoa
Experiment: acrosome-reacted (PNA+) sperm after agonist cocktail, percent change vs DMSO (capacitating); higher = more of the measured sperm population than DMSO, for viability, fewer PI-positive (dead) cells than DMSO
Conditions: incubation time: 3h; 29.9 µM; capacitating + agonist cocktail 1h
Counter-ions that a name gives are not always drawn.
Measured acrosome-reacted of individual entries
Numbers only; they are read as %.

COc1cc2c(cc1OC)-c1c/c(=N\c3c(C)cc(C)cc3C)n(C)c(=O)n1CC2 [Trequinsin hydrochloride] = 120
CN(C)CCCn1cc(C2=C(c3c[nH]c4ccccc34)C(=O)NC2=O)c2ccccc21 = -7.18

From here, focus on the item given below.
// fetch human spermatozoa acrosome-reacted for CCOC(=O)CSc1nc(=O)c(NCC(=O)OC)n[nH]1 [Compound B4] 102
